Provenance of the data: paper PMC12040169

- Assay Remarks: in vitro
- Run Conditions: human, hela cells, % viability
Assay Endpoint: viability at 28.5 h, 10 µM (%)
Numbers only, in %.

>>> recorded_number("CN1C[C@@H](NC(=O)c2ccc3c(c2)OCO3)C[C@H]1c1nc(-c2ccccc2)no1")
108
>>> recorded_number("O=C(NCc1csc(-c2ccccc2)n1)c1ccccc1OC(F)F")
95
>>> recorded_number("CN(C)CCN1CCN(CC2(c3ccc(Cl)cc3)CC2)CC1")
103
>>> recorded_number("Cc1ccnc(NCC2CCN(c3cc(=O)n4oc(C)cc4n3)C2)c1 (centres unmarked)")
84.6
>>> recorded_number("COc1cncc(-c2cc(Nc3ccc(O)cc3C)ncn2)c1")
103

Give measured viability at 28.5 h, 10 µM for every item shown.
1. O=C(NCCCn1ccnc1)c1cccc(S(=O)(=O)N2CCCCC2)c1
2. Nc1ncnc2c1ncn2C1OC(C(=O)O)C(O)C1O (centres unmarked)
3. CC1=C[C@@H](CNC(=O)c2ccccn2)[C@H](C(C)C)C[C@H]1CC(=O)O
4. COc1ccccc1-c1ncc(OCC(F)(F)F)nc1NC(=O)C1CC1
5. CN1CCN(CCCNC(=O)C2(c3ccccc3)CCCC2)CC1
6. COc1ccc(CNC2CCCc3ccccc32)c(OC)c1C (centres unmarked) [CBK025778G]

Reply:
111
99.9
87.5
86.4
106
77.6
